Each entry below lists one item and its recorded Tm value.
experiment: melting temperature; fluorescence melt of hairpins on a sequencing array, two-state fit, raised by 9.35 °C to match UV melts; conditions: sodium 0.088 M
The answer should read as a number with its unit following.

Sample answers from the record:
macromolecule_sequence="GAGCCGGCGAAAGCCCTC (((..(((....))))))" readout=Tm value_measured="28.7 °C"
macromolecule_sequence="CGTTCTCGGAAACGAACG (((..(((....))))))" readout=Tm value_measured="35.8 °C"
macromolecule_sequence="GAGTAGCGAAAGCTTCTC (((.(((....))).)))" readout=Tm value_measured="47.2 °C"
macromolecule_sequence="GCGCGTGGAAACGTGCGC ((((..(....)..))))" readout=Tm value_measured="64.7 °C"
macromolecule_sequence="GTCCGTGGAAACACAGAC (((.(((....))).)))" readout=Tm value_measured="40.5 °C"
macromolecule_sequence="GGGCTCCCGAAAGGGCCC (((..(((....))))))" readout=Tm value_measured="56 °C"
macromolecule_sequence="GATCATGGAATGATC ((((((...))))))" readout=Tm value_measured="56.5 °C"
macromolecule_sequence="GAACGGGGAAACCTGTTC ((((.((....)).))))" readout=Tm value_measured="49 °C"

Kindly consider the entry below.
The measured Tm associated with GCGTGGATACGC ((((....)))) reads 66.6 °C

----------
Each entry below lists one item and its recorded Tm value.
experiment: melting temperature; fluorescence melt of hairpins on a sequencing array, two-state fit, raised by 9.35 °C to match UV melts; conditions: sodium 0.088 M
Hi! Could you send only the number? It should be in °C, unit omitted.

Sample answers from the record:
macromolecule_sequence="CGTACCGGAAACGGAACG (((.(((....))).)))" readout=Tm value_measured=50.7
macromolecule_sequence="GTACCGGGAAACTGGTAC (((((.(....).)))))" readout=Tm value_measured=51.4
macromolecule_sequence="GATCATTCCTATGATC ((((((....))))))" readout=Tm value_measured=49.7
macromolecule_sequence="GCGACCCTCGC ((((...))))" readout=Tm value_measured=49.4
macromolecule_sequence="GCGGCCTCCGC ((((...))))" readout=Tm value_measured=61.8
macromolecule_sequence="GATCATGGGTATGATC ((((((....))))))" readout=Tm value_measured=46.7

The measured Tm associated with GATCCGCCCTCGGATC ((((((....)))))) reads 57.1

The measured Tm associated with GGGTTCGAAAGAACCCCC ((((((....)))..))) reads 68.2

The measured Tm associated with GGTTCGCGAAAGCGTACC (((.(((....))).))) reads 56

The measured Tm associated with GAAACGGGAAACCGTTTC (((((((....))))))) reads 60.3

The measured Tm associated with GATCAACTCTTGATC ((((((...)))))) reads 42.3

The measured Tm associated with GATCCGTTGCCGGATC ((((((....)))))) reads 58.4

The measured Tm associated with GGACTCGGAAACGGGTCC ((((.((....)).)))) reads 57.4

The measured Tm associated with GCTAGGCGAAAGCACAGC (((..((....))..))) reads 46.3

The measured Tm associated with GCCCAGGCGAAAGCCGGC (((..(((....)))))) reads 62

The measured Tm associated with GATACAGGAAACTGTGTC ((.((((....)))).)) reads 44.9

The measured Tm associated with GCATATGGAAACACATGC ((((.((....)).)))) reads 35.8

The measured Tm associated with GTCATCGGAAACAATGAC (((((.(....).))))) reads 36.1

The measurements presented in this section are drawn from the array DNA melting data of Ke et al. (doi:10.1101/2024.01.08.574731).
